B1: tRNA (parent)
chain: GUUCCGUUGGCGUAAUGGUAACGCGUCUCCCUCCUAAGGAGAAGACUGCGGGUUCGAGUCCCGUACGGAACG

variants of: B1; assay: yeast fitness relative to wild type (ratio to wild type); higher = fitter; tRNA-Arg(CCU), competitive growth, 37 C, YPD
Fewer inactive variants are shown than the library holds.
Here the recorded yeast fitness is given for each entry.

mutationString	yeast fitness
G12C U32C A65G	0.569
U3C U26C C30U A37G C61A	≤ 0.5
C4A G67C	0.69
U7A U8A G10C C27G C34G A43G C55U	≤ 0.5
C11A U19C C24G C30U C31U C61U G67C	≤ 0.5
A57C A69G	0.562
G18A C46U C49U U59C G68A	≤ 0.5
C4U C11U C31G C46A G63C A65U	≤ 0.5
C31A A37C U47C G67A	≤ 0.5
C29A C49A C62A C66U	≤ 0.5
C22U G67C	0.822
